test: Crystal violet cell proliferation inhibition assay; format: cell-based, human; details: human, CCD18co cells (normal colon epithelium); crystal violet procedure, Table 7; normal cells; read-out: Cytotoxic Activity, CCD18co
Quantity: IC50 at 72 h

> print(dat)
                                   compound   observed
1  O=c1[nH]c(=O)n([C@H]2C[C@H](O)[C@@H](CO)O2)cc1/C=C/Br [BVDU, (E)-5-(2-Bromovinyl)-2′-deoxyuridine]  > 1000 µM

---

assay: Crystal violet cell proliferation inhibition assay; type: cell-based, human; conditions: human, Det551 cells (normal skin); crystal violet procedure, Table 7; normal cells; read-out: Cytotoxic Activity, Det551
Quantity: IC50 at 72 h

> print(dat)
                                   molecule      quantity  observed
1  O=c1[nH]c(=O)n([C@H]2C[C@H](O)[C@@H](CO)O2)cc1/C=C/Br [BVDU, (E)-5-(2-Bromovinyl)-2′-deoxyuridine]  IC50 at 72 h    > 1 mM

---

system: MCF7TDX; assay: Crystal violet cell proliferation inhibition assay; conditions: read-out: Cytotoxic Activity, MCF7TDX; crystal violet procedure, Table 7; high TS
pIC50: −log10 of the molar value.
Below, each entry is listed with its recorded pIC50.
Quantity: pIC50

> print(dat)
                                   compound  target.system  sign  observed
1  O=c1[nH]c(=O)n([C@H]2C[C@H](O)[C@@H](CO)O2)cc1/C=C/C=C/Br (single isomer, unassigned; isomer 2) [NB1024 Isomer 2]        MCF7TDX     <      3.52
2  O=c1[nH]c(=O)n([C@H]2C[C@H](O)[C@@H](CO)O2)cc1/C=C/C=C\Br (single isomer, unassigned; isomer 1) [NB1024 Isomer 1]        MCF7TDX     =      5.01

---

test system: MCF7TDX; assay: Crystal violet cell proliferation inhibition assay; conditions: Homo sapiens, read-out: Cytotoxic Activity, MCF7TDX
Quantity: IC50

> print(dat)
                                   compound  target.system  observed
1  O=c1[nH]c(=O)n([C@H]2C[C@H](O)[C@@H](CO)O2)cc1/C=C/Br [BVDU, (E)-5-(2-Bromovinyl)-2′-deoxyuridine]        MCF7TDX  < 800 nM

---

system: CCd18co; assay: Crystal violet cell proliferation inhibition assay; format: cell-based, human; conditions: crystal violet procedure, Table 7; normal cells; read-out: Cytotoxic Activity, CCD18co
pIC50: −log10 of the molar value.
Quantity: pIC50

> print(dat)
                                   molecule  observed
1  O=c1[nH]c(=O)n([C@H]2C[C@H](O)[C@@H](CO)O2)cc1/C=C/C=C\Br (single isomer, unassigned; isomer 1) [NB1024 Isomer 1]    < 3.52
